assay: self-splicing fitness, log relative to wild type (ln ratio); higher = more splicing; Tetrahymena group I intron in knt gene, E. coli kanamycin selection, DiMSum; sequences stand for … in CUCUCU…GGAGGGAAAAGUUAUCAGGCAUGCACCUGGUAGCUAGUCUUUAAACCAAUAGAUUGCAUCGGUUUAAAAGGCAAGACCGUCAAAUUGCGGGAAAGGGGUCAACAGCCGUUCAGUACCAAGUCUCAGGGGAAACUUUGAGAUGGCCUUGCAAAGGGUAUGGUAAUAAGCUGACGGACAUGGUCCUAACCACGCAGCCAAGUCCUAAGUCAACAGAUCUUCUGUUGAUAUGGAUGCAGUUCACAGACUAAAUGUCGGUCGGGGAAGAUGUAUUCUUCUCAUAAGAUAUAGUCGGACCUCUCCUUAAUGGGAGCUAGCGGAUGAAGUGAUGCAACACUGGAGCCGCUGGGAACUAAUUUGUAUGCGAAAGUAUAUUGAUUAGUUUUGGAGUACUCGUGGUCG; conditions: 30 °C;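 note: selection with 25 µg/mL kanamycin versus none on LB agar overnight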
Measured self-splicing fitness (ln) determines class: interval 1 = under -3, interval 2 = from -3 up to -1, interval 3 = -1 and over

Input GCUGAGCAAUAUUACGGUAC ; output its category
interval 2

# repeat for UGUCAGCAAUAUUACGAUAG
interval 3

Also check CCUUAGCAAUAUUACGUUAG
interval 1

Ok, now AGUAAGCAAUAUUACGUAAC
interval 2

Further, for CAGUAGCAAUAUUACGAUGG ?
interval 3

Here is the next sequence: AAGCAGCAAUAUUACGGUAA
interval 2

Please do the same for GACGAGCAAUAUUACGAACU as well.
interval 2

Same again, this time with AUACAGCAAUAUUACGGGAU
interval 3

How about CCCAAGCAAUAUUACGGAGC ?
interval 1

For GCUAAGCAAUAUUACGAAAC then?
interval 2

More entries:
Bin this entry: CACGAGCAAUAUUACGAGCU
interval 1

Now the sequence AGACAGCAAUAUUACGAAGG
interval 1

Please do the same for GAAAAGCAAUAUUACGAUGA as well.
interval 3

Could you do the same for GUAUAGCAAUAUUACGAUGU , please?
interval 2

Quick one: GUAAAGCAAUAUUACGCGCA
interval 3

Here is the next sequence: ACCGAGCAAUAUUACGUCAC
interval 1

One more sequence: GCAGAGCAAUAUUACGAUGC
interval 1

Try this sequence too: UCGAAGCAAUAUUACGACGA
interval 3

Continue with AUAUAGCAAUAUUACGGGCU
interval 2

Then this sequence: GGCGAGCAAUAUUACGGUUA
interval 2

Can you handle UAUAAGCAAUAUUACGAAUG next?
interval 2

Now give it for UUACAGCAAUAUUACGGUUG too.
interval 3

Then GUAAAGCAAUAUUACGCCUA ?
interval 3

Item: UCCCAGCAAUAUUACGGUAU
interval 2

Next record, please: AGUUAGCAAUAUUACGAUUU
interval 3

###

assay: self-splicing fitness, log relative to wild type (ln ratio); higher = more splicing; Tetrahymena group I intron in knt gene, E. coli kanamycin selection, DiMSum; sequences stand for … in CUCUCU…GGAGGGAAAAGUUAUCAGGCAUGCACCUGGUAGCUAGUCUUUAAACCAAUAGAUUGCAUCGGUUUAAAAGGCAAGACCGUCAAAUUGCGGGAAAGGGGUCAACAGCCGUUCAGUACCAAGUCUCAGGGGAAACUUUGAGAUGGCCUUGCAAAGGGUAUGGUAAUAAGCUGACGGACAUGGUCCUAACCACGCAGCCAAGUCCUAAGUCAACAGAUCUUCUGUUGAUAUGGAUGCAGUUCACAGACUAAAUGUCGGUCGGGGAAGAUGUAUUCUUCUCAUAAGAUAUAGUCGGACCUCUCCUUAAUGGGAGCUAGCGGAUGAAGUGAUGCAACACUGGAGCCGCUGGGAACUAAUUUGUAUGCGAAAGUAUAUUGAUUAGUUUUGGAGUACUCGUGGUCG; conditions: 37 °C
Classification by self-splicing fitness (ln) | ranges: L = under -2, M = from -2 up to -0.9, H = -0.9 and over

Band for the recorded self-splicing fitness (ln) of AGAAAGCAAUAUUACGCGUA ?
H

Likewise for AAUUAGCAAUAUUACGUCUA ?
H

Now try ACCAAGCAAUAUUACGCGGG .
L

Try this sequence next: UUACAGCAAUAUUACGGGAG
H

Please give the result for CACUAGCAAUAUUACGAUUA too.
L

Would you kindly repeat that for UAGCAGCAAUAUUACGACAA ?
H

Moving on to CCCAAGCAAUAUUACGGCGA
M

Please give the result for CGAGAGCAAUAUUACGGGGA too.
M

Follow-up entry: GCGUAGCAAUAUUACGCUCA
H

How about UACGAGCAAUAUUACGCUUU ?
L

Next:
Which bin, given its self-splicing fitness (ln), does ACAAAGCAAUAUUACGCGUC occupy?
L

Follow-up item: UAGCAGCAAUAUUACGAAUG
H

Repeat with CCCAAGCAAUAUUACGAUUU
L

Now try GUCCAGCAAUAUUACGAUUG .
L

Again, but for UAUUAGCAAUAUUACGAAGG
H

Same thing, different sequence: AAGAAGCAAUAUUACGACGU
H

Same question for UUCUAGCAAUAUUACGGAAC please.
M

Proceed to CAACAGCAAUAUUACGGAUC
M

// same read-out, input: CGCAAGCAAUAUUACGGGAU
L

Then this sequence: GUGUAGCAAUAUUACGUUAU
L

Same lookup for ACUGAGCAAUAUUACGCCCA , please.
L

Same question, ACUAAGCAAUAUUACGAAGC this time
L

Then what about the sequence UGCCAGCAAUAUUACGUAUU ?
L

Moving on to AAGGAGCAAUAUUACGGCCC
M

And then GUUUAGCAAUAUUACGUUAU , what is it?
H

What do we get for UAUAAGCAAUAUUACGAAUG ?
H
